methodNotes: pH-dependent biphasic extraction of a peptide mixture with inverse micelles of polymer 1 in toluene, MALDI-MS ion abundance ratio
Type: physicochemical
assayContext: polymer 1 inverse micelles in toluene; aqueous pH 4.0; K = Iorg/Iaq; [M+H]+ signal, [M+K]+ for spinorphin and β-amyloid; at least 4 replicates
No end group written: not given here.
Returns: string. Value is T if measured Ion abundance ratio (K ± sM) pH 4.0 is below 200, and F if it is greater than or equal to it.

S YSMEHFRWGKPV [ACTH Human]: F
SSEVAGEGDGDSMGHEDLY (listed as Homo sapiens) [Preproenkephalin, human peptide purchased from American Peptide Company]: T
LVVYPWT [Spinorphin, LVVYPWT]: T
EDVGSNKGAIIGLM (listed as Homo sapiens) [β-Amyloid, human peptide purchased from American Peptide Company]: T
IARRHPYFL (listed as Homo sapiens) [Kinetensin, human peptide purchased from American Peptide Company]: F

---

methodNotes: pH-dependent biphasic extraction of a peptide mixture with inverse micelles of polymer 1 in toluene, MALDI-MS ion abundance ratio
Type: physicochemical
assayContext: polymer 1 inverse micelles in toluene; aqueous pH 9.0; K = Iorg/Iaq; [M+H]+ signal, [M+K]+ for spinorphin and β-amyloid; at least 4 replicates
No end group written: not given here.
Listing: Ion abundance ratio (K ± sM) pH 9.0 of selected substances
recordedMetric: Ion abundance ratio (K ± sM) pH 9.0

S YSMEHFRWGKPV [ACTH Human]: 128
LVVYPWT [Spinorphin, LVVYPWT]: 1.0
EDVGSNKGAIIGLM (listed as Homo sapiens) [β-Amyloid, human peptide purchased from American Peptide Company]: 0.10
IARRHPYFL (listed as Homo sapiens) [Kinetensin, human peptide purchased from American Peptide Company]: 616
SSEVAGEGDGDSMGHEDLY (listed as Homo sapiens) [Preproenkephalin, human peptide purchased from American Peptide Company]: 0.12
